system: LTB4 production in murine whole blood (LTA4H); test: LTB4 production by calcium ionophore-stimulated murine blood for LTA4H inhibitor activity; format: cell-based, CD-1 mice; conditions: CD-1 mouse blood diluted 1:15, calcium ionophore A23187 20 ng/mL, LTB4 by enzyme-linked immunoassay
pIC50: −log10 of the molar value.

{"columns": ["COMPOUND", "pIC50"],
 "data": [
  ["CC(C)N(CCC(=O)O)CCc1ccc(Oc2nc3ccccc3s2)cc1 [Example 180]", 7.82]
]}
